Where a SMILES comes first, the peptide text is derived from it. [ ]: non-standard residue; d: D form. MeBmt = C/C=C/C[C@@H](C)[C@@H](O)[C@H](NC)C(=O)O; NMeY = CN[C@@H](Cc1ccc(O)cc1)C(=O)O; NMeT = CN[C@H](C(=O)O)[C@@H](C)O; NMeL = CN[C@@H](CC(C)C)C(=O)O; NMeV = CN[C@H](C(=O)O)C(C)C; NMeA = CN[C@@H](C)C(=O)O; Abu = CC[C@H](N)C(=O)O; Sar = CNCC(=O)O
For reference, IC50 measured on Cyclophilin A (Homo sapiens):

{"columns": ["compound", "subject_of_test", "IC50"],
 "data": [
  ["C/C=C/C[C@@H](C)[C@@H](O)[C@H]1C(=O)N[C@@H](CC)C(=O)N(C)CC(=O)N(C)CC(=O)N[C@@H](C(C)C)C(=O)N(C)[C@@H](CC(C)C)C(=O)N[C@@H](CC)C(=O)N[C@H](C)C(=O)N(C)[C@@H](CC(C)C)C(=O)N(C)[C@@H](CC(C)C)C(=O)N(C)[C@@H](C(C)C)C(=O)N1C [Compound C97] (cyclo([Abu][Sar][Sar]V[NMeL][Abu][dA][NMeL][NMeL][NMeV][MeBmt]))", "Cyclophilin A (Homo sapiens)", "< 2000 nM"],
  ["C/C=C/C[C@@H](C)[C@@H](O)[C@H]1C(=O)N[C@@H](CC)C(=O)N(C)CC(=O)N(C)[C@@H]([C@@H](C)O)C(=O)N[C@@H](C)C(=O)N(C)CC(=O)N[C@@H](C)C(=O)N[C@H](C)C(=O)N(C)[C@@H](CC(C)C)C(=O)N(C)[C@@H](CC(C)C)C(=O)N(C)[C@@H](C(C)C)C(=O)N1C [Compound C23] (cyclo([MeBmt][Abu][Sar][NMeT]A[Sar]A[dA][NMeL][NMeL][NMeV]))", "Cyclophilin A (Homo sapiens)", "< 2000 nM"]
]}

Observed IC50 on Cyclophilin A (Homo sapiens), entry C/C=C/C[C@@H](C)[C@@H](O)[C@H]1C(=O)N[C@@H](CC)C(=O)N(C)CC(=O)N(C)[C@@H](Cc2ccc(O)cc2)C(=O)N[C@@H](C(C)C)C(=O)N(C)[C@@H](C)C(=O)N[C@@H](CC(C)C)C(=O)N[C@H](C)C(=O)N(C)[C@@H](CC(C)C)C(=O)N(C)[C@@H](CC(C)C)C(=O)N(C)[C@@H](C(C)C)C(=O)N1C [Compound C88] (cyclo([MeBmt][Abu][Sar][NMeY]V[NMeA]L[dA][NMeL][NMeL][NMeV])) , equals < 2000 nM

---

Biological target: Cyclophilin A (Homo sapiens, UniProt P62937)
Construct: made in house
Sequence (P62937 whole entry, species assumed): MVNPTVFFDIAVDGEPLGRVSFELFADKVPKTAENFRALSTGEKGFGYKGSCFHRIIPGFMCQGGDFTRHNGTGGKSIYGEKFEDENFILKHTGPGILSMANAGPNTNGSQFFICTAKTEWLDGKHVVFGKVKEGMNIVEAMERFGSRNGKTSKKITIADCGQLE
Experiment: AlphaLISA inhibition of binding of biotinylated Cyclosporin A to FLAG tagged Cyclophilin A
Details: AlphaLISA signal; test concentration not given
Where a SMILES comes first, the peptide text is derived from it. [ ]: non-standard residue; d: D form. MeBmt = C/C=C/C[C@@H](C)[C@@H](O)[C@H](NC)C(=O)O; NMeY = CN[C@@H](Cc1ccc(O)cc1)C(=O)O; NMeI = CC[C@H](C)[C@H](NC)C(=O)O; NMeT = CN[C@H](C(=O)O)[C@@H](C)O; NMeL = CN[C@@H](CC(C)C)C(=O)O; NMeV = CN[C@H](C(=O)O)C(C)C; NMeA = CN[C@@H](C)C(=O)O; Abu = CC[C@H](N)C(=O)O; Sar = CNCC(=O)O
Everything with % signal lower than 7% is NO; everything else, including exactly 7%, is YES.

Solved entries (count: 3):
{"columns": ["molecule", "cat"],
 "data": [
  ["C/C=C/C[C@@H](C)[C@@H](O)[C@H]1C(=O)N[C@@H](CC)C(=O)N(C)CC(=O)N(C)[C@@H](CC(C)C)C(=O)N[C@@H](CC(C)C)C(=O)N(C)[C@@H](CC(C)C)C(=O)N[C@@H](CC(C)C)C(=O)N[C@H](C)C(=O)N(C)[C@@H](CC(C)C)C(=O)N(C)[C@@H](CC(C)C)C(=O)N(C)[C@@H](C(C)C)C(=O)N1C [Compound C62] (cyclo([MeBmt][Abu][Sar][NMeL]L[NMeL]L[dA][NMeL][NMeL][NMeV]))", "YES"],
  ["C/C=C/C[C@@H](C)[C@@H](O)[C@H]1C(=O)N[C@@H](CC)C(=O)N(C)CC(=O)N(C)[C@@H](Cc2ccc(O)cc2)C(=O)N[C@@H](CC(C)C)C(=O)N(C)[C@@H](C)C(=O)N[C@@H](C)C(=O)N[C@H](C)C(=O)N(C)[C@@H](CC(C)C)C(=O)N(C)[C@@H](CC(C)C)C(=O)N(C)[C@@H](C(C)C)C(=O)N1C [Compound C16] (cyclo([MeBmt][Abu][Sar][NMeY]L[NMeA]A[dA][NMeL][NMeL][NMeV]))", "NO"],
  ["C/C=C/C[C@@H](C)[C@@H](O)[C@H]1C(=O)N[C@@H](CC)C(=O)N(C)CC(=O)N(C)[C@@H]([C@@H](C)CC)C(=O)N[C@@H](C)C(=O)N(C)CC(=O)N[C@@H](C)C(=O)N[C@H](C)C(=O)N(C)[C@@H](CC(C)C)C(=O)N(C)[C@@H](CC(C)C)C(=O)N(C)[C@@H](C(C)C)C(=O)N1C [Compound C17] (cyclo([MeBmt][Abu][Sar][NMeI]A[Sar]A[dA][NMeL][NMeL][NMeV]))", "YES"]
]}

Consider the record given below.
Hello, I need to know if C/C=C/C[C@@H](C)[C@@H](O)[C@H]1C(=O)N[C@@H](CC)C(=O)N(C)CC(=O)N(C)[C@@H]([C@@H](C)O)C(=O)N[C@@H](CC(C)C)C(=O)N(C)[C@@H](CC(C)C)C(=O)N[C@@H](CC(C)C)C(=O)N[C@H](C)C(=O)N(C)[C@@H](CC(C)C)C(=O)N(C)[C@@H](CC(C)C)C(=O)N(C)[C@@H](C(C)C)C(=O)N1C [Compound C63] (cyclo([MeBmt][Abu][Sar][NMeT]L[NMeL]L[dA][NMeL][NMeL][NMeV])) has measured % signal not below 7%. Thanks!
NO

Data origin: patent US20200199102A1
